# Procedure Summary: Pharmacokinetic study in mice
# Assay type: in vivo
# Conditions: male, ICR, mouse, plasma, PO 10 mg/kg
Provide the reported AUC of each item.
Answers are plain numbers, in ng·h/mL.

molecule="CN(Cc1nnc(-c2ccccc2)o1)c1nc(=O)c2cc(C(F)(F)F)cc([N+](=O)[O-])c2s1 [Compound 37]" output_unit=ng·h/mL measured=1870

Asked: AUC lookup needed for CN(Cc1cn(-c2ccccc2)nn1)c1nc(=O)c2cc(C(F)(F)F)cc([N+](=O)[O-])c2s1 [Compound 2] , thanks.
Given back: 2190

---

Provide the reported half-life of each item.
# Procedure Summary: Pharmacokinetic study in mice
# Format: in vivo
# Conditions: male, ICR, mouse, plasma, IV 2 mg/kg
Numbers only, in min.

compound_smiles=CN(Cc1cn(-c2ccccc2)nn1)c1nc(=O)c2cc(C(F)(F)F)cc([N+](=O)[O-])c2s1 quantity_name=half-life measured=66

Consider the record given below.
Asked: half-life lookup needed for CN(Cc1nnc(-c2ccccc2)o1)c1nc(=O)c2cc(C(F)(F)F)cc([N+](=O)[O-])c2s1 , thanks.
Given back: 18

---

Provide the reported IC50 of each item.
# Tgt: recombinant M. tuberculosis DprE1 enzyme (Mycobacterium tuberculosis)
# Sequence (P9WJF1 whole entry): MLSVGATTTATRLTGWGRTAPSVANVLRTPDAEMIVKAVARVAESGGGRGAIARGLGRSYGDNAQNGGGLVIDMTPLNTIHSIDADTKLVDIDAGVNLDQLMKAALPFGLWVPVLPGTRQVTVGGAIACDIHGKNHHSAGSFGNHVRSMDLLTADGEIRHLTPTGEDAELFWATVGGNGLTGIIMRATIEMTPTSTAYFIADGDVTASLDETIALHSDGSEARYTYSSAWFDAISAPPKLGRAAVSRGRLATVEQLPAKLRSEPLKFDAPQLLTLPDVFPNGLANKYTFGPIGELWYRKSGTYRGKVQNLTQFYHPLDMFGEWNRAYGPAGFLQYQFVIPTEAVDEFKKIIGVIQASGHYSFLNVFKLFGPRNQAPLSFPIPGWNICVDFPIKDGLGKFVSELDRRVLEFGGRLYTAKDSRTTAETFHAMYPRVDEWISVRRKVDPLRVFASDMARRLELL
# Procedure Summary: DprE1 inhibition, Amplex Red/peroxidase coupled assay
# Conditions: Mtb DprE1

Take a look at these entries with their results.
compound_smiles=CN(Cc1cn(-c2c(F)cccc2F)nn1)c1nc(=O)c2cc(C(F)(F)F)cc([N+](=O)[O-])c2s1 measured="7200 nM"
compound_smiles=CN(Cc1coc(-c2ccccc2)n1)c1nc(=O)c2cc(C(F)(F)F)cc([N+](=O)[O-])c2s1 measured="220 nM"
compound_smiles=CN(Cc1cn(-c2ccc(F)c(Cl)c2)nn1)c1nc(=O)c2cc(C(F)(F)F)cc([N+](=O)[O-])c2s1 measured="41 nM"
compound_smiles=CN(Cc1cn(-c2ccc(Cl)cc2Cl)nn1)c1nc(=O)c2cc(C(F)(F)F)cc([N+](=O)[O-])c2s1 measured="24 nM"

Your task in this section: give IC50 for each listed record.
1. CN(Cc1cn(-c2ccc(Cl)c(Cl)c2)nn1)c1nc(=O)c2cc(C(F)(F)F)cc([N+](=O)[O-])c2s1
2. CN(Cc1nnc(-c2ccccc2)o1)c1nc(=O)c2cc(C(F)(F)F)cc([N+](=O)[O-])c2s1
3. CN(Cc1coc(-c2cccc(F)c2)n1)c1nc(=O)c2cc(C(F)(F)F)cc([N+](=O)[O-])c2s1
4. CN(Cc1cn(-c2cc(Cl)cc(Cl)c2)nn1)c1nc(=O)c2cc(C(F)(F)F)cc([N+](=O)[O-])c2s1
5. CN(Cc1coc(-c2ccc(F)cc2)n1)c1nc(=O)c2cc(C(F)(F)F)cc([N+](=O)[O-])c2s1
6. CN(Cc1cn(-c2ccc(F)c(Br)c2)nn1)c1nc(=O)c2cc(C(F)(F)F)cc([N+](=O)[O-])c2s1
7. CN(Cc1csc(-c2cccc(F)c2)n1)c1nc(=O)c2cc(C(F)(F)F)cc([N+](=O)[O-])c2s1
8. CN(Cc1csc(-c2ccccc2)n1)c1nc(=O)c2cc(C(F)(F)F)cc([N+](=O)[O-])c2s1

Given back:
["20 nM", "20 to 750 nM", "74 nM", "90 nM", "750 nM", "7200 nM", "65 nM", "69 nM"]

Asked: Find IC50 (recombinant M. tuberculosis DprE1 enzyme (Mycobacterium tuberculosis)) for the entry CN(Cc1cn(-c2ccccc2)nn1)c1nc(=O)c2cc(C(F)(F)F)cc([N+](=O)[O-])c2s1
Given back: 20 to 750 nM
